# systemUnderTest: FGFR3 Kinase (UniProt P22607 436-806)
# Sequence (P22607 436-806 limits assumed): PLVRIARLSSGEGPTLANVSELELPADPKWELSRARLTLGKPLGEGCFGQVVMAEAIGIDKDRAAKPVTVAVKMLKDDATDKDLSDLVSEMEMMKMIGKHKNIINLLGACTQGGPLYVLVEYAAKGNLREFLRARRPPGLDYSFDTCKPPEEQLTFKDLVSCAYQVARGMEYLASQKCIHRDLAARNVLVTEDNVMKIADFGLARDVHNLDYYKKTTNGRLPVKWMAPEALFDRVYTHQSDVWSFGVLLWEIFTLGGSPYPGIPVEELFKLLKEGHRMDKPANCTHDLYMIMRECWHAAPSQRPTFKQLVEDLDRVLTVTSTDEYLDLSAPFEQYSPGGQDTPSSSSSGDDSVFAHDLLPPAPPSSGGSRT
# procedureText: cell-based or functional assay
*: point of attachment. Palmitoyl = CCCCCCCCCCCCCCCC(=O)*
Some binders, each annotated with its measured FGFR3 Kinase % Inhibition.
Could you give me the number in %? Just the number is fine.

[
  {
    "binder": "Palmitoyl-KFNLPAGNYKKP-NH2 (SMILES CCCCCCCCCCCCCCCC(=O)N[C@@H](CCCCN)C(=O)N[C@@H](Cc1ccccc1)C(=O)N[C@@H](CC(N)=O)C(=O)N[C@@H](CC(C)C)C(=O)N1CCC[C@H]1C(=O)N[C@@H](C)C(=O)NCC(=O)N[C@@H](CC(N)=O)C(=O)N[C@@H](Cc1ccc(O)cc1)C(=O)N[C@@H](CCCCN)C(=O)N[C@@H](CCCCN)C(=O)N1CCC[C@H]1C(N)=O) [Peptide 6: Palm-Lys-Phe-Asn-Leu-Pro-Ala-Gly-Asn-Tyr-Lys-Lys-Pro-NH2]",
    "unitDescriptor": "%",
    "measuredResult": 78.5
  },
  {
    "binder": "Palmitoyl-KFNLPLGAYKKP-NH2 (SMILES CCCCCCCCCCCCCCCC(=O)N[C@@H](CCCCN)C(=O)N[C@@H](Cc1ccccc1)C(=O)N[C@@H](CC(N)=O)C(=O)N[C@@H](CC(C)C)C(=O)N1CCC[C@H]1C(=O)N[C@@H](CC(C)C)C(=O)NCC(=O)N[C@@H](C)C(=O)N[C@@H](Cc1ccc(O)cc1)C(=O)N[C@@H](CCCCN)C(=O)N[C@@H](CCCCN)C(=O)N1CCC[C@H]1C(N)=O) [Peptide 8: Palm-Lys-Phe-Asn-Leu-Pro-Leu-Gly-Ala-Tyr-Lys-Lys-Pro-NH2]",
    "unitDescriptor": "%",
    "measuredResult": 87.9
  },
  {
    "binder": "Palmitoyl-KFNLPLGNYKAP-NH2 (SMILES CCCCCCCCCCCCCCCC(=O)N[C@@H](CCCCN)C(=O)N[C@@H](Cc1ccccc1)C(=O)N[C@@H](CC(N)=O)C(=O)N[C@@H](CC(C)C)C(=O)N1CCC[C@H]1C(=O)N[C@@H](CC(C)C)C(=O)NCC(=O)N[C@@H](CC(N)=O)C(=O)N[C@@H](Cc1ccc(O)cc1)C(=O)N[C@@H](CCCCN)C(=O)N[C@@H](C)C(=O)N1CCC[C@H]1C(N)=O) [Peptide 11: Palm-Lys-Phe-Asn-Leu-Pro-Leu-Gly-Asn-Tyr-Lys-Ala-Pro-NH2]",
    "unitDescriptor": "%",
    "measuredResult": 19.3
  },
  {
    "binder": "Palmitoyl-KFNLPLGNYKKA-NH2 (SMILES CCCCCCCCCCCCCCCC(=O)N[C@@H](CCCCN)C(=O)N[C@@H](Cc1ccccc1)C(=O)N[C@@H](CC(N)=O)C(=O)N[C@@H](CC(C)C)C(=O)N1CCC[C@H]1C(=O)N[C@@H](CC(C)C)C(=O)NCC(=O)N[C@@H](CC(N)=O)C(=O)N[C@@H](Cc1ccc(O)cc1)C(=O)N[C@@H](CCCCN)C(=O)N[C@@H](CCCCN)C(=O)N[C@@H](C)C(N)=O) [Peptide 12: Palm-Lys-Phe-Asn-Leu-Pro-Leu-Gly-Asn-Tyr-Lys-Lys-Ala-NH2]",
    "unitDescriptor": "%",
    "measuredResult": 46.4
  },
  {
    "binder": "Palmitoyl-KFALPLGNYKKP-NH2 (SMILES CCCCCCCCCCCCCCCC(=O)N[C@@H](CCCCN)C(=O)N[C@@H](Cc1ccccc1)C(=O)N[C@@H](C)C(=O)N[C@@H](CC(C)C)C(=O)N1CCC[C@H]1C(=O)N[C@@H](CC(C)C)C(=O)NCC(=O)N[C@@H](CC(N)=O)C(=O)N[C@@H](Cc1ccc(O)cc1)C(=O)N[C@@H](CCCCN)C(=O)N[C@@H](CCCCN)C(=O)N1CCC[C@H]1C(N)=O) [Peptide 3: Palm-Lys-Phe-Ala-Leu-Pro-Leu-Gly-Asn-Tyr-Lys-Lys-Pro-NH2]",
    "unitDescriptor": "%",
    "measuredResult": 91.9
  }
]

The binder listed as Palmitoyl-KFNLALGNYKKP-NH2 (SMILES CCCCCCCCCCCCCCCC(=O)N[C@@H](CCCCN)C(=O)N[C@@H](Cc1ccccc1)C(=O)N[C@@H](CC(N)=O)C(=O)N[C@@H](CC(C)C)C(=O)N[C@@H](C)C(=O)N[C@@H](CC(C)C)C(=O)NCC(=O)N[C@@H](CC(N)=O)C(=O)N[C@@H](Cc1ccc(O)cc1)C(=O)N[C@@H](CCCCN)C(=O)N[C@@H](CCCCN)C(=O)N1CCC[C@H]1C(N)=O) [Peptide 5: Palm-Lys-Phe-Asn-Leu-Ala-Leu-Gly-Asn-Tyr-Lys-Lys-Pro-NH2] has a reported FGFR3 Kinase % Inhibition of 49.6

FGFR3 Kinase % Inhibition recorded for this binder, Palmitoyl-KFNLPLGNYKKP-NH2 (SMILES CCCCCCCCCCCCCCCC(=O)N[C@@H](CCCCN)C(=O)N[C@@H](Cc1ccccc1)C(=O)N[C@@H](CC(N)=O)C(=O)N[C@@H](CC(C)C)C(=O)N1CCC[C@H]1C(=O)N[C@@H](CC(C)C)C(=O)NCC(=O)N[C@@H](CC(N)=O)C(=O)N[C@@H](Cc1ccc(O)cc1)C(=O)N[C@@H](CCCCN)C(=O)N[C@@H](CCCCN)C(=O)N1CCC[C@H]1C(N)=O) [Peptide 1: Palm-Lys-Phe-Asn-Leu-Pro-Leu-Gly-Asn-Tyr-Lys-Lys-Pro-NH2] , is 75.8

Per the record, Palmitoyl-KFNLPLGNAKKP-NH2 (SMILES CCCCCCCCCCCCCCCC(=O)N[C@@H](CCCCN)C(=O)N[C@@H](Cc1ccccc1)C(=O)N[C@@H](CC(N)=O)C(=O)N[C@@H](CC(C)C)C(=O)N1CCC[C@H]1C(=O)N[C@@H](CC(C)C)C(=O)NCC(=O)N[C@@H](CC(N)=O)C(=O)N[C@@H](C)C(=O)N[C@@H](CCCCN)C(=O)N[C@@H](CCCCN)C(=O)N1CCC[C@H]1C(N)=O) [Peptide 9: Palm-Lys-Phe-Asn-Leu-Pro-Leu-Gly-Asn-Ala-Lys-Lys-Pro-NH2] has FGFR3 Kinase % Inhibition of 91.6

Lab book: FGFR3 Kinase % Inhibition of Palmitoyl-KFNLPLANYKKP-NH2 (SMILES CCCCCCCCCCCCCCCC(=O)N[C@@H](CCCCN)C(=O)N[C@@H](Cc1ccccc1)C(=O)N[C@@H](CC(N)=O)C(=O)N[C@@H](CC(C)C)C(=O)N1CCC[C@H]1C(=O)N[C@@H](CC(C)C)C(=O)N[C@@H](C)C(=O)N[C@@H](CC(N)=O)C(=O)N[C@@H](Cc1ccc(O)cc1)C(=O)N[C@@H](CCCCN)C(=O)N[C@@H](CCCCN)C(=O)N1CCC[C@H]1C(N)=O) [Peptide 7: Palm-Lys-Phe-Asn-Leu-Pro-Leu-Ala-Asn-Tyr-Lys-Lys-Pro-NH2] noted as 72.9

FGFR3 Kinase % Inhibition reported for this binder Palmitoyl-KFNAPLGNYKKP-NH2 (SMILES CCCCCCCCCCCCCCCC(=O)N[C@@H](CCCCN)C(=O)N[C@@H](Cc1ccccc1)C(=O)N[C@@H](CC(N)=O)C(=O)N[C@@H](C)C(=O)N1CCC[C@H]1C(=O)N[C@@H](CC(C)C)C(=O)NCC(=O)N[C@@H](CC(N)=O)C(=O)N[C@@H](Cc1ccc(O)cc1)C(=O)N[C@@H](CCCCN)C(=O)N[C@@H](CCCCN)C(=O)N1CCC[C@H]1C(N)=O) [Peptide 4: Palm-Lys-Phe-Asn-Ala-Pro-Leu-Gly-Asn-Tyr-Lys-Lys-Pro-NH2] : 60.8

Every entry's value here was drawn from patent US20180258140A1.
